Every entry's value here was drawn from patent US7772252B2.

Biological target: cloned human dopamine D3 receptors (Homo sapiens)
Construct: expressed in transfected cells; membrane homogenate
Sequence (P35462 whole entry): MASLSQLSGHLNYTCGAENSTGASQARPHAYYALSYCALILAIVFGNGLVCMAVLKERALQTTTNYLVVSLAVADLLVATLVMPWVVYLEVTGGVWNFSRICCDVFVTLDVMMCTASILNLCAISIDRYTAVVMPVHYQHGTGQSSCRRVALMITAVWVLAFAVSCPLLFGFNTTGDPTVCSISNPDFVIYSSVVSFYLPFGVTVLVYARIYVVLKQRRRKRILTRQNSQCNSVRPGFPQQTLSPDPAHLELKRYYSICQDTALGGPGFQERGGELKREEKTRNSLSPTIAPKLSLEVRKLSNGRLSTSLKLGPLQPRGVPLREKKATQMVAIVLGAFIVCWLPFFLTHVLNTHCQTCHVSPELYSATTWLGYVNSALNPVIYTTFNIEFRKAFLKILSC
Assay: [N-Methyl-3H]Spiroperidol binding to cloned human dopamine D3 receptors
Details: read-out: D3 Ki
OBSERVABLE: pKi
Formally, pKi is defined as -log10 of the concentration c, with c in mol/L.

Fill in the blank: the reported pKi of O=C(NC1CCN(CCc2cccc(Cl)c2)CC1)[C@@H]1C[C@H]1CN1CCC(c2noc3ccsc23)CC1 [compound 833748] is ____.
8.86

Fill in the blank: the reported pKi of O=C(C1CC1CN1CCC(c2noc3ccsc23)CC1)N1CCC(n2c(=O)[nH]c3ccccc32)CC1 (racemic) [compound 831737] is ____.
8.90

Fill in the blank: the reported pKi of O=C(NC1CCN(Cc2cccc(F)c2)CC1)C1CC1CN1CCC(c2noc3ccsc23)CC1 (racemic) [compound 831994] is ____.
8.57

Fill in the blank: the reported pKi of O=C(NCCc1ccccn1)[C@@H]1C[C@H]1CN1CCC(c2noc3ccsc23)CC1 [compound 831274] is ____.
7.76

Fill in the blank: the reported pKi of O=C(N[C@H]1CC[C@H](O)CC1)[C@@H]1C[C@H]1CN1CCC(c2nn(-c3ccc(C(F)(F)F)cc3)c3ccccc23)CC1 [compound 831953] is ____.
7.43

Fill in the blank: the reported pKi of COc1cccc2c(C3CCN(C[C@@H]4C[C@H]4C(=O)NC4CC5CC(C4C)C5(C)C)CC3)nn(C)c12 (stereo partly shown) [compound 834171] is ____.
7.19

Fill in the blank: the reported pKi of COc1c(F)ccc2c(C3CCN(CCC4(C(=O)NCCCN5CCCCC5)CC4)CC3)noc12 [compound 833365] is ____.
6.78
